# assay.info: solvent given as SMILES
# condition.description: in ClC(Cl)Cl
property: absorption maximum (nm)
Quick note: give the figure in nm, leave out the unit.

Examples with their reported absorption maximum follow.
### Prompt Any idea what absorption maximum was measured for CC1(C)c2ccccc2N(c2ccc(-c3nnc(-c4ccccc4O)o3)cc2)c2ccccc21 ?
### Response 365

### Prompt Then what about the compound CCCCCCC(CCCCCC)N1C(=O)c2cccc3c(-c4ccc(OC)c5cccc(C)c45)ccc(c23)C1=O ?
### Response 329

### Prompt Follow-up item: COc1ccc(N(c2ccc(OC)cc2)c2ccc(-c3ccc(C=C(C#N)C#N)cc3)cc2)cc1
### Response 483

### Prompt Same for CC1=NN(c2ccccc2)C(=O)/C1=C/c1cn(-c2ccccc2)nc1-c1ccccc1
### Response 368

### Prompt Continue with CCCCCCN1C(=O)c2cccc3c(-c4ccc([N+](=O)[O-])s4)ccc(c23)C1=O
### Response 363

Further cases:
### Prompt Give the measured absorption maximum of N#Cc1ccc(C#Cc2ccc(C#Cc3ccccc3C#N)cc2C#N)cc1 .
### Response 340

### Prompt Can you handle c1ccc2c(-c3ccc(-n4c5ccccc5c5ccccc54)cc3)c3c(nc2c1)-c1cc2c(cc1CC3)-c1nc3ccccc3c(-c3ccc(-n4c5ccccc5c5ccccc54)cc3)c1CC2 next?
### Response 377

### Prompt # repeat for C(=N\c1ccc(-c2cn3nc(-c4cccs4)sc3n2)cc1)/c1ccc(N(c2ccccc2)c2ccccc2)cc1
### Response 390

###

# assay.info: solvent given as SMILES
# condition.description: in CC(C)O
Each record here notes measured absorption maximum.
Provide the reading as a plain figure in nm.

### Prompt absorption maximum for CN(C)c1ccc2nc(-c3ccc(C(=O)OC(C)(C)C)cc3)sc2c1 ?
### Response 392

### Prompt Note, next up: O=c1ccc2cc3ccoc3cc2o1
### Response 298

### Prompt Next molecule: COCCOc1ccc(OCCOC)c(C=O)c1
### Response 349

### Prompt Note, next up: Oc1ccccc1/N=C/c1ccccc1Oc1ccccc1
### Response 352

### Prompt What about this molecule? CCCCCCCCCCCCCCCC[n+]1ccc(/C=C/c2ccccc2O)cc1
### Response 520.4

Others:
### Prompt Please give the measured absorption maximum for this molecule: CN(C)c1ccc(/C=C/c2cc[n+](CCC[n+]3ccc(/C=C/c4ccc(N(C)C)cc4)cc3)cc2)cc1
### Response 499

### Prompt Same for CN(C)c1ccc(/C=C/c2cc[n+](Cc3cc(C[n+]4ccc(/C=C/c5ccc(N(C)C)cc5)cc4)cc(C[n+]4ccc(/C=C/c5ccc(N(C)C)cc5)cc4)c3)cc2)cc1
### Response 490

### Prompt Moving on to CC(C)CCCCN1CCc2c1ccc1c3c(ccc21)C(=O)CCC3
### Response 376

### Prompt CCC[n+]1ccc(/C=C/c2ccc(N(C)C)cc2)cc1 , same question.
### Response 485

### Prompt Thanks! And CCCCCCCCCCCCCCCC[n+]1ccc(/C=C(\C)c2ccccc2)cc1 ?
### Response 385.4

###

# assay.info: solvent given as SMILES
# condition.description: in Cc1ccccc1
property: absorption maximum (nm)
Numeric answer only, unit nm assumed.

Solved entries (count: 3):
### Prompt I have this molecule here, CCCCCCCCC1(CCCCCCCC)c2ccccc2-c2ccc(-c3nnc(-c4ccc(-n5c6ccc(C(C)(C)C)cc6c6cc(C(C)(C)C)ccc65)cc4)o3)cc21 , and I need its recorded absorption maximum.
### Response 352

### Prompt Similarly, F[B-]1(F)n2c(c3cccc4cccc2c43)=Nc2cccc[n+]21 ?
### Response 472

### Prompt Ok, now O=P1(c2ccccc2)c2ccc(N3c4ccccc4Oc4ccccc43)cc2-c2cc(N3c4ccccc4Oc4ccccc43)ccc21
### Response 405

# ---- query molecule ----
### Prompt What absorption maximum value was documented for this molecule, C#CCOc1ccc(C2=[N+]3C(=Nc4c(-c5ccccc5)cc(-c5ccc(O)cc5)n4[B-]3(F)F)C(c3ccccc3)=C2)cc1 ?
### Response 685
